system: HL-60; assay: Cytotoxicity against human HL60 cells after 2 days; assay type: functional, cell-based; conditions: HL-60, 48 h
Each entry below lists one item and its recorded IC50 value.
Give the value in µM but do not write µM after it.

c1ccc(-c2cc(-c3ccco3)c3c(n2)-c2ccccc2OC3)cc1
7.3
c1ccc(-c2cc(-c3ccco3)c3c(n2)-c2ccccc2OC3)nc1
18.6
c1ccc(-c2cc(-c3cccs3)c3c(n2)-c2ccccc2OC3)nc1
13.7

Now look at this entry.
Can you share its IC50? I mean this molecule: "c1ccc(-c2cc(-c3ccccn3)nc3c2COc2ccccc2-3)cc1"
14.5
